Biological target: RIG-I Q784A/R791A Q784A;R791A (Homo sapiens)
Sequence: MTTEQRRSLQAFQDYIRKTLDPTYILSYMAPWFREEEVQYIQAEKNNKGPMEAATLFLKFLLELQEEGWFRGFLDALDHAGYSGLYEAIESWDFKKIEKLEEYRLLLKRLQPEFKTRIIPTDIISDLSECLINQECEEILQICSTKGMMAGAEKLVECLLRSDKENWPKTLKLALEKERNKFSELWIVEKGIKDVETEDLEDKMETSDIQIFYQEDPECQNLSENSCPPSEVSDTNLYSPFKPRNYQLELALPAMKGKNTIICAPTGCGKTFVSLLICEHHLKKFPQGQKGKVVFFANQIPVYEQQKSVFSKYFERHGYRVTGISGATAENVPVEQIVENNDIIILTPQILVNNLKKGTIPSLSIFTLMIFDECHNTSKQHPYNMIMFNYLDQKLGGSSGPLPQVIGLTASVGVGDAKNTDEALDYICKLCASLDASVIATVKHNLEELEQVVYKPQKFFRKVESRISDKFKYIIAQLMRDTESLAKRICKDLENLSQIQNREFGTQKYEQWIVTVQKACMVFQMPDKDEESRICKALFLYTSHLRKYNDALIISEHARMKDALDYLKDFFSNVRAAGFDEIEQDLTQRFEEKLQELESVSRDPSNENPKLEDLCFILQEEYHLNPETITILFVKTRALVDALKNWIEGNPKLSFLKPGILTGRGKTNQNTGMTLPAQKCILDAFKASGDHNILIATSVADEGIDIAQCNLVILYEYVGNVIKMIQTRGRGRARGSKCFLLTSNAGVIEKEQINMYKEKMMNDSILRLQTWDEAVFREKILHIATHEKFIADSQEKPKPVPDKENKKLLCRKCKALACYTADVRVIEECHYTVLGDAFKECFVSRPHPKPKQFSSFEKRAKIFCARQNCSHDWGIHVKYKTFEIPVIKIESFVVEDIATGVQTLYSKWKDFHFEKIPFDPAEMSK
Test: fluorescence polarization
Settings: internal 6-carboxyfluorescein in backbone between U12 and C13 (central tetraloop bases); 25 mM MOPS pH 7.4, 150 mM KCl, 2 mM DTT, 2 mM MgCl2, 0.01% Triton X-100, 1 nM RNA, room temperature, 1 h
measuredParameter: pKd
Value format note: pKd is -log10 of concentration (mol/L); just state the number.

So what pKd did GGACGUACGUUUCGACGUACGUCC [5'OH10L-F] get with RIG-I Q784A/R791A Q784A;R791A (Homo sapiens)?
7.04
